We begin with a simple list: items and their reported concentration at 2 h.
# assay.notes: Quantitation of compounds in rat knee joint extract after intra-articular injection (LC-MS/MS)
# Type: in vivo
# recorded.conditions: knee joint extract (whole joint, acetonitrile extract), other: intra-articular injection, 30 μL of 100 μM solution, T = 2 h, 30 μL of 100 μM intra-articular, read-out: Concentration observed in extract
Your answer should be a plain number; it is taken to be in ng/mL.

QUERY: Record request: concentration at 2 h value, item COCCc1ccc(NC(=O)c2ccccc2NS(=O)(=O)c2ccccc2)cc1
RESULT: 0

QUERY: Record request: concentration at 2 h value, item CNS(=O)(=O)c1ccc(N2Cc3ccccc3C2=O)cc1
RESULT: 2.5

QUERY: Record request: concentration at 2 h value, item CN(Cc1cccc(NC(=O)c2ccccc2C(=O)O)c1)S(C)(=O)=O
RESULT: 2.6

QUERY: Record request: concentration at 2 h value, item CS(=O)(=O)c1ccc(C(=O)Nc2ccccc2S(=O)(=O)N2CCOCC2)cc1
RESULT: 0

QUERY: Record request: concentration at 2 h value, item COCCc1ccc(NC(=O)c2ccccc2NS(C)(=O)=O)cc1
RESULT: 0

QUERY: Record request: concentration at 2 h value, item CC1COCCN1S(=O)(=O)c1ccccc1NC(=O)c1ccc(F)cc1 (stereo not drawn)
RESULT: 546

QUERY: Record request: concentration at 2 h value, item N#Cc1ccc(C(=O)Nc2ccccc2S(=O)(=O)N2CCOCC2)cc1
RESULT: 15.7

QUERY: Record request: concentration at 2 h value, item COCCc1ccc(NC(=O)c2ccccc2C(=O)O)cc1
RESULT: 0

Turning to the following compound.
QUERY: Record request: concentration at 2 h value, item O=C(Nc1ccccc1S(=O)(=O)N1CCOCC1)c1ccc(F)cc1
RESULT: 338
